Measured 8OG:A repair function score of individual entries
B1: library; numbered along this chain (parent)
chain: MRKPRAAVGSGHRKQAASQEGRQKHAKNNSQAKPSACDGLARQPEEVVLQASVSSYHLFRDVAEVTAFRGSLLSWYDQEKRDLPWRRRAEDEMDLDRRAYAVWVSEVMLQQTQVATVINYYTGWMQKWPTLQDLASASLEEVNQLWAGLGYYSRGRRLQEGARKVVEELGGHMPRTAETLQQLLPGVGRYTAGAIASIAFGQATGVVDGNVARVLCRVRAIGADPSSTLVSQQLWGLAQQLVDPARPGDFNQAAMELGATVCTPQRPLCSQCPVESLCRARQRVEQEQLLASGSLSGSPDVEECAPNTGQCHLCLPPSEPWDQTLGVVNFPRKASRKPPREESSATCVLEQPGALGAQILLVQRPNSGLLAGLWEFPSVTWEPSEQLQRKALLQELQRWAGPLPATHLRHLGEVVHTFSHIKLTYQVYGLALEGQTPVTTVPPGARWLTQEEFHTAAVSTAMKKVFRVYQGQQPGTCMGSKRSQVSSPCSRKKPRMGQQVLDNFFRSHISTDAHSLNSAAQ

Variants of: B1
Assay: 8OG:A repair function score (normalized; synonymous = 0, nonsense = -1) (normalized log-likelihood score); higher = more repair activity (WT-like);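 further: cells sorted at 72 h after reporter transfection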
Settings: with 8OG:A DNA repair reporter (GFP) in HEK-293 MUTYH KO cells
Enter a number only.

sequenceVariant	endpointValue
L268W	-0.0985
N366P	-0.104
T324Y	-0.0755
S518F	-0.0829

The value of 8OG:A repair function score measured for the variant M108A turned out to be -1.06
